Assay: Acute toxicity in Albino mouse assessed as change in RBC count measured per million cells at 50 to 2000 mg/kg, po measured after 14 days (reference value: 9.15 microL)
Format: organism-based, Erythrocyte
Conditions: in vivo, 336 h, dose 50-2000 mg/kg, time 14 day
Answer each item with its documented Activity.
Enter the number alone.

Ask | Suppose we examine the molecule O=C1C(Cl)=C(N2C(=O)C(Cl)C2c2ccc([N+](=O)[O-])cc2)C(=O)c2ccccc21 (stereo unspecified) ; what Activity value has been reported?
Reply | 9.85

Ask | Suppose we examine the molecule COc1ccc(C2C(Cl)C(=O)N2C2=C(Cl)C(=O)c3ccccc3C2=O)cc1 (stereo unspecified) ; what Activity value has been reported?
Reply | 9.4

Ask | Suppose we examine the molecule CN(C)c1ccc(C2C(Cl)C(=O)N2C2=C(Cl)C(=O)c3ccccc3C2=O)cc1 (stereo unspecified) ; what Activity value has been reported?
Reply | 9.67

Ask | Suppose we examine the molecule CCOc1cc(C2C(Cl)C(=O)N2C2=C(Cl)C(=O)c3ccccc3C2=O)ccc1O (stereo unspecified) ; what Activity value has been reported?
Reply | 8.95

Ask | Suppose we examine the molecule O=C1C(Cl)=C(N2C(=O)C(Cl)C2c2ccc(Cl)cc2)C(=O)c2ccccc21 (stereo unspecified) ; what Activity value has been reported?
Reply | 9.6

* * *

Assay: Acute toxicity in Albino mouse assessed as change in neutrophils at 50 to 2000 mg/kg, po measured after 14 days (reference value: 75%)
Assay type: organism-based
Conditions: in vivo, 336 h, dose 50-2000 mg/kg, time 14 day
I'd appreciate it if you marked entries True when Activity is lower than 60% and False when it is not.

Ask | Determine whether this compound shows Activity lower than 60% (ties excluded): O=C1C(Cl)=C(Cl)C(=O)c2ccccc21
Reply | True

Ask | Determine whether this compound shows Activity lower than 60% (ties excluded): NC1=C(Cl)C(=O)c2ccccc2C1=O
Reply | True

Ask | Determine whether this compound shows Activity lower than 60% (ties excluded): O=C1C(Cl)=C(N2C(=O)C(Cl)C2c2ccc([N+](=O)[O-])cc2)C(=O)c2ccccc21 (configuration not stated)
Reply | False

Ask | Determine whether this compound shows Activity lower than 60% (ties excluded): O=C1C(Cl)=C(N2C(=O)C(Cl)C2c2ccc(Cl)cc2)C(=O)c2ccccc21 (configuration not stated)
Reply | False

Ask | Determine whether this compound shows Activity lower than 60% (ties excluded): COc1ccc(C2C(Cl)C(=O)N2C2=C(Cl)C(=O)c3ccccc3C2=O)cc1 (configuration not stated)
Reply | False

Ask | Determine whether this compound shows Activity lower than 60% (ties excluded): CCOc1cc(C2C(Cl)C(=O)N2C2=C(Cl)C(=O)c3ccccc3C2=O)ccc1O (configuration not stated)
Reply | False

* * *

Assay: Hepatotoxicity in Albino mouse assessed as change in hepatocytes at 50 to 2000 mg/kg, po measured after 14 days
Assay type: toxicity, organism-based
Details: in vivo, 336 h, dose 50-2000 mg/kg, time 14 day
experimental readout: Activity

Example compounds with recorded Activity:
{"columns": ["compound", "Activity"],
 "data": [
  ["COc1ccc(C2C(Cl)C(=O)N2C2=C(Cl)C(=O)c3ccccc3C2=O)cc1 (stereo not given)", "Non-Toxic"],
  ["O=C1C(Cl)=C(Cl)C(=O)c2ccccc21", "Non-Toxic"],
  ["NC1=C(Cl)C(=O)c2ccccc2C1=O", "Non-Toxic"],
  ["O=C1C(Cl)=C(N2C(=O)C(Cl)C2c2ccc(Cl)cc2)C(=O)c2ccccc21 (stereo not given)", "Non-Toxic"]
]}

# context switch: different compound, same Activity
Ask | Suppose we examine the compound CCOc1cc(C2C(Cl)C(=O)N2C2=C(Cl)C(=O)c3ccccc3C2=O)ccc1O (stereo not given) ; what Activity value has been reported?
Reply | Non-Toxic

* * *

Answer each item with its documented viability at 100 ug/ml.
Assay: Cytotoxicity against african green monkey Vero cells assessed as cell viability at 100 ug/ml by MTT assay
Type: toxicity, cell-based
Conditions: chlorocebus sabaeus, at 100 µg/mL, read-out: Activity
Include the unit right after the number.

Ask | Suppose we examine the compound COc1ccc(C2C(Cl)C(=O)N2C2=C(Cl)C(=O)c3ccccc3C2=O)cc1 (configuration not stated) ; what viability at 100 ug/ml value has been reported?
Reply | 0.7%

Ask | Suppose we examine the compound NC1=C(Cl)C(=O)c2ccccc2C1=O ; what viability at 100 ug/ml value has been reported?
Reply | 3.1%

Ask | Suppose we examine the compound O=C1C(Cl)=C(N2C(=O)C(Cl)C2c2ccc([N+](=O)[O-])cc2)C(=O)c2ccccc21 (configuration not stated) ; what viability at 100 ug/ml value has been reported?
Reply | 9.6%

Ask | Suppose we examine the compound CN(C)c1ccc(C2C(Cl)C(=O)N2C2=C(Cl)C(=O)c3ccccc3C2=O)cc1 (configuration not stated) ; what viability at 100 ug/ml value has been reported?
Reply | 10.2%

Ask | Suppose we examine the compound CCOc1cc(C2C(Cl)C(=O)N2C2=C(Cl)C(=O)c3ccccc3C2=O)ccc1O (configuration not stated) ; what viability at 100 ug/ml value has been reported?
Reply | 10.4%

Ask | Suppose we examine the compound O=C1C(Cl)=C(Cl)C(=O)c2ccccc21 ; what viability at 100 ug/ml value has been reported?
Reply | 28.7%

Ask | Suppose we examine the compound O=C1C(Cl)=C(N2C(=O)C(Cl)C2c2ccc(Cl)cc2)C(=O)c2ccccc21 (configuration not stated) ; what viability at 100 ug/ml value has been reported?
Reply | 8.6%

* * *

Test: Acute toxicity in Albino mouse assessed as change in serum urea level at 50 to 2000 mg/kg, po measured after 14 days (reference value: 46 mg/dl)
Type: organism-based
Conditions: in vivo, 336 h, dose 50-2000 mg/kg, time 14 day
I'd appreciate it if you marked entries Criterion met when Activity is lower than 50 mg/dL and Criterion not met when it is not.

Ask | Determine whether this molecule shows Activity lower than 50 mg/dL (ties excluded): CN(C)c1ccc(C2C(Cl)C(=O)N2C2=C(Cl)C(=O)c3ccccc3C2=O)cc1 (configuration not stated)
Reply | Criterion met

Ask | Determine whether this molecule shows Activity lower than 50 mg/dL (ties excluded): NC1=C(Cl)C(=O)c2ccccc2C1=O
Reply | Criterion not met

Ask | Determine whether this molecule shows Activity lower than 50 mg/dL (ties excluded): O=C1C(Cl)=C(N2C(=O)C(Cl)C2c2ccc(Cl)cc2)C(=O)c2ccccc21 (configuration not stated)
Reply | Criterion not met

Ask | Determine whether this molecule shows Activity lower than 50 mg/dL (ties excluded): CCOc1cc(C2C(Cl)C(=O)N2C2=C(Cl)C(=O)c3ccccc3C2=O)ccc1O (configuration not stated)
Reply | Criterion met

Ask | Determine whether this molecule shows Activity lower than 50 mg/dL (ties excluded): O=C1C(Cl)=C(N2C(=O)C(Cl)C2c2ccc([N+](=O)[O-])cc2)C(=O)c2ccccc21 (configuration not stated)
Reply | Criterion met

* * *

Test: Acute toxicity in Albino mouse assessed as change in ALP level at 50 to 2000 mg/kg, po measured after 14 days (reference value: 28 IU/L)
Format: organism-based
Settings: in vivo, 336 h, dose 50-2000 mg/kg, time 14 day
Answer each item with its documented Activity.
Kindly provide the numeric value in IU/L only, without the unit symbol.

Ask | Suppose we examine the molecule O=C1C(Cl)=C(N2C(=O)C(Cl)C2c2ccc([N+](=O)[O-])cc2)C(=O)c2ccccc21 (configuration not stated) ; what Activity value has been reported?
Reply | 429.54

Ask | Suppose we examine the molecule COc1ccc(C2C(Cl)C(=O)N2C2=C(Cl)C(=O)c3ccccc3C2=O)cc1 (configuration not stated) ; what Activity value has been reported?
Reply | 44

Ask | Suppose we examine the molecule O=C1C(Cl)=C(Cl)C(=O)c2ccccc21 [Dichlon] ; what Activity value has been reported?
Reply | 33

Ask | Suppose we examine the molecule CCOc1cc(C2C(Cl)C(=O)N2C2=C(Cl)C(=O)c3ccccc3C2=O)ccc1O (configuration not stated) ; what Activity value has been reported?
Reply | 832.75

Ask | Suppose we examine the molecule NC1=C(Cl)C(=O)c2ccccc2C1=O ; what Activity value has been reported?
Reply | 40

Ask | Suppose we examine the molecule O=C1C(Cl)=C(N2C(=O)C(Cl)C2c2ccc(Cl)cc2)C(=O)c2ccccc21 (configuration not stated) ; what Activity value has been reported?
Reply | 433.93

Ask | Suppose we examine the molecule CN(C)c1ccc(C2C(Cl)C(=O)N2C2=C(Cl)C(=O)c3ccccc3C2=O)cc1 (configuration not stated) ; what Activity value has been reported?
Reply | 52

* * *

Assay: Renal toxicity in Albino mouse assessed as change in tubular capillaries at 50 to 2000 mg/kg, po measured after 14 days
Type: organism-based
Conditions: in vivo, 336 h, dose 50-2000 mg/kg, time 14 day
experimental readout: Activity

Example molecules with recorded Activity:
{"columns": ["molecule", "Activity"],
 "data": [
  ["O=C1C(Cl)=C(Cl)C(=O)c2ccccc21 [Dichlon]", "Non-Toxic"],
  ["CN(C)c1ccc(C2C(Cl)C(=O)N2C2=C(Cl)C(=O)c3ccccc3C2=O)cc1 (configuration not stated)", "Non-Toxic"],
  ["NC1=C(Cl)C(=O)c2ccccc2C1=O", "Non-Toxic"],
  ["COc1ccc(C2C(Cl)C(=O)N2C2=C(Cl)C(=O)c3ccccc3C2=O)cc1 (configuration not stated)", "Non-Toxic"],
  ["O=C1C(Cl)=C(N2C(=O)C(Cl)C2c2ccc(Cl)cc2)C(=O)c2ccccc21 (configuration not stated)", "Non-Toxic"]
]}

Ask | Suppose we examine the molecule O=C1C(Cl)=C(N2C(=O)C(Cl)C2c2ccc([N+](=O)[O-])cc2)C(=O)c2ccccc21 (configuration not stated) ; what Activity value has been reported?
Reply | Non-Toxic

Ask | Suppose we examine the molecule CCOc1cc(C2C(Cl)C(=O)N2C2=C(Cl)C(=O)c3ccccc3C2=O)ccc1O (configuration not stated) ; what Activity value has been reported?
Reply | Non-Toxic
